- Test system: COLO 205 colon
- Measurement notes: NCI tumour cell line growth inhibition, 48 h
Listed compounds paired with reported GI50
Readout type: GI50

COc1ccc(/C=C(/C(=O)N2CCN(c3ccccc3)CC2)c2cc(OC)c(OC)c(OC)c2)cc1O ... 3.89 µM
C=C(CNCc1ccccc1)c1ccc(C(=O)Nc2ccccc2N)cc1 ... 4.9 µM
COc1cc2nc(-c3ccc(Cl)cc3)cc(OCCCN3CCCCC3)c2cc1OC ... 0.582 µM
CC(C)c1ccc2c(c1)CC[C@@H]1[C@@](C)(C(=O)O)CCC[C@]21C ... 3.23 µM

* * *

// values below are reported TGI
- System: NCI-H460 lung
- Measurement notes: NCI tumour cell line growth inhibition, 48 h
Readout type: TGI

Nc1ccc(Oc2ccc(C34CC5CC6C3CC3CC4C(C5)C6(c4ccc(Oc5ccc(N)cc5)cc4)C3)cc2)cc1 ... 61.2 µM
O=C1NC(NNc2ccccc2)=N/C1=C\c1ccccc1O ... > 100 µM
C/C(=N\NC(=S)N1CCCCC1)c1nc2ncccc2[nH]1 ... 49.8 µM
CC(=O)c1cccc(NC(=O)C(=O)NNc2n[nH]c(=S)n2N)c1 ... 13.3 µM
COc1ccc(-n2cc(-c3cc(OC)c(OC)c(OC)c3)c(C(=O)C(F)(F)F)c2C)cc1 ... > 100 µM
CC1(C)CC(=O)c2[nH]c3ccccc3c2CC(=O)NCCc2cn1cn2 ... > 100 µM
COc1ccc(N2C(=O)CC(C3CC(C(C)(C)C)CCC3=O)C2=O)cc1 (stereo unspecified) ... > 100 µM
NS(=O)(=O)c1ccc(N=Nc2nc3[nH]c(=O)[nH]c(=O)c3[nH]2)cc1 ... > 100 µM
CO/N=C/c1cc(OC)c(OC)c(OC)c1 ... > 100 µM
O=C1NC(=O)C(c2cnc3ccccn23)=C1c1cn2c3c(cc(F)cc13)CN(C(=O)N1CCCCC1)CC2 ... 29.1 µM
O=c1cnn(C2OC(C(O)CO)C(O)C2O)c(=O)[nH]1 (stereo unspecified) ... > 100 µM
O=C1NC(=O)C(c2c[nH]c3ccccc23)=C1c1cnc[nH]1 ... > 100 µM
Nc1ccc2c(c1)N(C(=O)c1cc3cc(NC(=O)c4cc5ccccc5o4)ccc3[nH]1)CC2CCl (stereo unspecified) ... > 32.8 µM
COc1cc2nc(-c3ccc(Cl)cc3)cc(OCCCN3CCCCC3)c2cc1OC ... > 100 µM
CC(C)(C)OC(=O)N1CCc2[nH][nH]c(=O)c2C1 ... > 100 µM
c1nc(OCC2CCCCC2)c2[nH]cnc2n1 ... > 100 µM
CCCCCCCCCCCCOC1C(C(COC2OC(C3COC(C)(C)O3)C3OC(C)(C)OC23)NC(=O)Nc2ccc(C(=O)O)cc2)OC2OC(C)(C)OC21 (stereo unspecified) ... 5.89 µM
CC(=O)N(C)c1ccc(Nc2cc(C)[nH]c3ccc4ncnc4c23)cc1 ... 12.3 µM
C=C1C(=O)O[C@@H]2C[C@@H]1CC/C(C)=C/CC/C(C)=C/CC[C@@]2(C)O ... 43.2 µM
Clc1nc2ccccc2nc1CI ... 28.5 µM
O=C(O)c1ccc(Nc2c3ccccc3nc3ccccc23)cc1 ... > 100 µM
